- System under test: human Cathepsin D (Homo sapiens, UniProt P07339)
- Construct: purchased
- Sequence (P07339 65-412): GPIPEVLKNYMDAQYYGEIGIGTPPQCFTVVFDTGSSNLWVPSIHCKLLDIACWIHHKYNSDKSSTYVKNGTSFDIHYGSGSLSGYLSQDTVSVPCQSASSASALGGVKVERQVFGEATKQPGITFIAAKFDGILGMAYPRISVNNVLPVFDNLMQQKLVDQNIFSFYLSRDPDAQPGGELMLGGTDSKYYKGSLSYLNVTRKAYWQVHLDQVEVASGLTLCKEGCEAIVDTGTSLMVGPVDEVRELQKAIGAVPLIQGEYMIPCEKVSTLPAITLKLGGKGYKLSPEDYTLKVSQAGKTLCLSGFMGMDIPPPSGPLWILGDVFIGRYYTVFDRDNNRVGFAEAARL
- Assay details: Cathepsin D inhibition assay, hydrolysis of chromogenic substrate
- Format: biochemical
- Run parameters: 25° C., 10 mM sodium formate, 2% DMSO, pH 4.0; fit to competitive inhibition; read-out: Ki CatD
# pKi values compiled below
Note: pKi values are expressed as the negative base-10 logarithm of concentration in M.

Examples from the recorded data:
Molecule	Experimental readout	Value observed
CC(C)(C)NC(=O)C1N(C(=O)C(O)C(Cc2ccccc2)NC(=O)C(CCC(N)=O)NC(=O)COc2cccc3cnccc23)CSC1(C)C (stereo not drawn)	pKi	5.20
Cc1cccc(C)c1OCC(=O)NC(Cc1ccccc1)C(O)C(=O)N1CSC(C)(C)C1C(=O)NC(CO)c1ccccc1 (stereo not drawn)	pKi	5.98
CC(C)[C@H](NC(=O)c1ccccn1)C(=O)N[C@@H](Cc1ccccc1)[C@H](O)C(=O)N1CSC(C)(C)[C@H]1C(=O)NC(C)(C)C	pKi	6.01
Cc1cccc(C)c1OCC(=O)N[C@@H](Cc1ccccc1)[C@H](O)C(=O)N1CSC(C)(C)[C@H]1C(=O)NCc1ccccc1	pKi	6.59
CC(C)(C)NC(=O)[C@@H]1CSCN1C(=O)[C@@H](O)[C@H](Cc1ccccc1)NC(=O)CCC(=O)O	pKi	5.09

Give the measured pKi for CC(C)C(NC(=O)COc1ccccc1)C(=O)NC(Cc1ccccc1)C(O)C(=O)N1CSC(C)(C)C1C(=O)NC(C)(C)C (stereo not drawn)
5.89

Give the measured pKi for `Cc1cccc(C)c1OCC(=O)N[C@@H](Cc1ccccc1)[C@H](O)C(=O)N1CSC(C)(C)[C@H]1C(=O)N[C@H](C)c1ccccc1`
6.95

Give the measured pKi for `CSC[C@H](NC(=O)COc1cccc2cnccc12)C(=O)N[C@@H](Cc1ccccc1)[C@H](O)C(=O)N1CSC(C)(C)[C@H]1C(=O)N[C@H]1Cc2ccccc2[C@H]1O`
7.40

Give the measured pKi for `CC(C)[C@H](NC(=O)COc1cccc2cnccc12)C(=O)N[C@@H](Cc1ccccc1)[C@H](O)C(=O)N1CSC(C)(C)[C@H]1C(=O)NC(C)(C)C`
5.43

---

- System under test: human Cathepsin D (Homo sapiens, UniProt P07339)
- Construct: purchased
- Assay details: Cathepsin D inhibition assay, hydrolysis of chromogenic substrate
- Assay type: biochemical
- Run parameters: 25° C., 10 mM sodium formate, 2% DMSO, pH 4.0; fit to competitive inhibition; read-out: Ki CatD
pKi: −log10 of the molar value.
The threshold is inclusive: pKi of exactly 6 counts as condition met; values below receive condition not met.

Recorded results for 2 compounds are shown here.
Compound	System under test	Qualitative label
CC(C)(C)NC(=O)[C@H]1N(C(=O)[C@@H](O)[C@H](Cc2ccccc2)NC(=O)CC(C)(C)C(=O)O)CSC1(C)C [KNI-413]	human Cathepsin D (Homo sapiens, UniProt P07339)	condition not met
CC(C(=O)O)C(C)C(=O)N[C@@H](Cc1ccccc1)[C@H](O)C(=O)N1CSC[C@H]1C(=O)NC(C)(C)C (stereo partly drawn) [KNI-547]	human Cathepsin D (Homo sapiens, UniProt P07339)	condition not met

Consider the additional compound presented here.
Given the entry CC(C)[C@H](NC(=O)COc1cccc(Nc2ccccc2)c1)C(=O)N[C@@H](Cc1ccccc1)[C@H](O)C(=O)N1CSC(C)(C)[C@H]1C(=O)NC(C)(C)C [KNI-10005] , answer whether its pKi meets or surpasses 6.
condition met

---

- System under test: plasmepsin II from Plasmodium falciparum (Plm II) (Plasmodium falciparum, UniProt P46925)
- Construct: made in house; host or cells: Escherichia coli
- Sequence (P46925 125-453): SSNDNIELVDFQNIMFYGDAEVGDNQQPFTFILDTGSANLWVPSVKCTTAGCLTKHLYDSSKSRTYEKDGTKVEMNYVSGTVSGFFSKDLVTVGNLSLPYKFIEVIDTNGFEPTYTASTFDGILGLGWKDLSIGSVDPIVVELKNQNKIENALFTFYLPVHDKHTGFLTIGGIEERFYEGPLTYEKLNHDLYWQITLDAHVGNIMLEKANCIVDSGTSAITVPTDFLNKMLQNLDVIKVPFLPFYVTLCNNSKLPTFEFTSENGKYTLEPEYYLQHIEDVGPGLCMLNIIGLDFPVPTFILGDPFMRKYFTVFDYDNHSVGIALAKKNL
- Assay details: Plasmepsin II inhibition assay, hydrolysis of chromogenic substrate
- Type: biochemical
- Run parameters: 25° C., 10 mM sodium formate, 2% DMSO, pH 4.0; fit to competitive inhibition; read-out: Ki Plm II
Experimental readout: pKi
Note: pKi values are expressed as the negative base-10 logarithm of concentration in M.

Examples from the recorded data:
Molecule	Experimental readout	Value observed
CC(C)[C@H](NC(=O)COc1cccc2cnccc12)C(=O)N[C@@H](Cc1ccccc1)[C@H](O)C(=O)N1CSC(C)(C)[C@H]1C(=O)NC(C)(C)C [KNI-492]	pKi	6.47
CC(C)[C@H](NC(=O)c1ccc2ccccc2n1)C(=O)N[C@@H](Cc1ccccc1)[C@H](O)C(=O)N1CSC(C)(C)[C@H]1C(=O)NC(C)(C)C [KNI-10004]	pKi	6.28
CC(C)[C@H](NC(=O)Cc1cccc2ccccc12)C(=O)N[C@@H](Cc1ccccc1)[C@H](O)C(=O)N1CSC(C)(C)[C@H]1C(=O)NC(C)(C)C [KNI-10028]	pKi	5.79
Cc1ccccc1CNC(=O)[C@H]1N(C(=O)[C@@H](O)[C@H](Cc2ccccc2)NC(=O)c2cccc(O)c2C)CSC1(C)C [KNI-764]	pKi	7.52
CC(C)(C)NC(=O)[C@@H]1CSCN1C(=O)[C@@H](O)[C@H](Cc1ccccc1)NC(=O)CC(C)(C)C(=O)O [KNI-391]	pKi	4.90

Give the measured pKi for Cc1cccc(C)c1OCC(=O)N[C@@H](Cc1ccccc1)[C@H](O)C(=O)N1CSC(C)(C)[C@H]1C(=O)NCc1ccccc1O [KNI-10047]
7.26

---

- System under test: plasmepsin II from Plasmodium falciparum (Plm II) (Plasmodium falciparum)
- Construct: made in house; host or cells: Escherichia coli
- Assay details: Plasmepsin II inhibition assay, hydrolysis of chromogenic substrate
- Format: biochemical
- Run parameters: read-out: Ki (Plasmepsin II)
Experimental readout: Ki (nM)
Lab book: enter the figure in nM, no units written.

Would you please give the reported Ki of Cc1cccc(C)c1OCC(=O)N[C@@H](Cc1ccccc1)[C@H](O)C(=O)N1CSC(C)(C)[C@H]1C(=O)N[C@H]1c2ccccc2C[C@H]1O [KNI-10006] with plasmepsin II from Plasmodium falciparum (Plm II) (Plasmodium falciparum)?
0.5

---

# pKi values compiled below
- System under test: plasmepsin II from Plasmodium falciparum (Plm II) (Plasmodium falciparum, UniProt P46925)
- Construct: made in house; host or cells: Escherichia coli
- Assay details: Plasmepsin II inhibition assay, hydrolysis of chromogenic substrate
- Format: biochemical
- Run parameters: 20° C., 10 mM sodium citrate, 100 mM NaCl, 2% DMSO, pH 4.0; read-out: inhibition constant, Plasmepsin II (FIG. 7)
Note: pKi values are expressed as the negative base-10 logarithm of concentration in M.

Smiles	Experimental readout	Value observed
Cc1cccc(C)c1OCC(=O)N[C@@H](Cc1ccccc1)[C@H](O)C(=O)N1CSC(C)(C)[C@H]1C(=O)N[C@H](C)c1ccccc1	pKi	7.96

For the next question, use this molecule.
Would you please give the reported pKi of `CSC[C@H](NC(=O)COc1cccc2cnccc12)C(=O)N[C@@H](Cc1ccccc1)[C@H](O)C(=O)N1CSC(C)(C)[C@H]1C(=O)N[C@H]1Cc2ccccc2[C@H]1O` with plasmepsin II from Plasmodium falciparum (Plm II) (Plasmodium falciparum, UniProt P46925)?
8.52

---

- System under test: human Cathepsin D (Homo sapiens)
- Construct: purchased
- Assay details: Cathepsin D inhibition assay, hydrolysis of chromogenic substrate
- Type: biochemical
- Run parameters: 25° C., 10 mM sodium formate, 2% DMSO, pH 4.0; fit to competitive inhibition; read-out: Ki CatD
# pKi values compiled below
Note: pKi values are expressed as the negative base-10 logarithm of concentration in M.

Compound	System under test	Value observed
CC[C@H](C)[C@H](NC(=O)COc1cccc2cnccc12)C(=O)N[C@@H](Cc1ccccc1)[C@H](O)C(=O)N1CSC(C)(C)[C@H]1C(=O)NC(C)(C)C [KNI-10001]	human Cathepsin D (Homo sapiens)	5.79
Cc1cccc(C)c1OCC(=O)N[C@@H](Cc1ccccc1)[C@H](O)C(=O)N1CSC(C)(C)[C@H]1C(=O)N[C@H](CO)c1ccccc1 [KNI-10043]	human Cathepsin D (Homo sapiens)	7.28
CC(C)[C@H](NC(=O)c1ccc2ccccc2n1)C(=O)N[C@@H](Cc1ccccc1)[C@H](O)C(=O)N1CSC(C)(C)[C@H]1C(=O)NC(C)(C)C [KNI-10004]	human Cathepsin D (Homo sapiens)	6.54

Would you please give the reported pKi of CSC[C@H](NC(=O)COc1cccc2cnccc12)C(=O)N[C@@H](Cc1ccccc1)[C@H](O)C(=O)N1CSC[C@H]1C(=O)NC(C)(C)C [KNI-272] with human Cathepsin D (Homo sapiens)?
5.59

Would you please give the reported pKi of Cc1c(O)cccc1C(=O)N[C@@H](Cc1ccccc1)[C@H](O)C(=O)N1CSC(C)(C)[C@H]1C(=O)NC(C)(C)C [KNI-577] with human Cathepsin D (Homo sapiens)?
5.46

Would you please give the reported pKi of Cc1cccc(C)c1OCC(=O)N[C@@H](Cc1ccccc1)[C@H](O)C(=O)N1CSC(C)(C)[C@H]1C(=O)N[C@H]1c2ccccc2C[C@H]1O [KNI-10006] with human Cathepsin D (Homo sapiens)?
8.70

Data origin, for the record: patent US7560482B2
